- assay system: 17-beta-hydroxysteroid dehydrogenase type 3 (Homo sapiens)
- method description: Inhibition of type-3 17 beta-hydroxysteroid dehydrogenase expressed in HEK293 cells at 3 uM 37 degree C pH 7.4
- Assay type: cell-based
# label = Criterion met if inhibition >= 90% else Criterion not met

compound="CCC[C@]1(O)CC[C@@]2(C)C(CC[C@@H]3[C@@H]2CC[C@]2(C)C(=O)CC[C@@H]32)C1 (some centres undefined)" group="Criterion not met"
compound="C[C@]12CCC3(CCCO3)CC1CC[C@@H]1[C@@H]2CC[C@]2(C)C(=O)CC[C@@H]12 (some centres undefined)" group="Criterion met"
compound="CCCCCCCCCCCC[C@@]1(O)CC[C@@]2(C)C(CC[C@@H]3[C@@H]2CC[C@]2(C)C(=O)CC[C@@H]32)C1 (some centres undefined)" group="Criterion not met"
compound="CCCO[C@]1(Cc2ccccc2)CC[C@@]2(C)C(CC[C@@H]3[C@@H]2CC[C@]2(C)C(=O)CC[C@@H]32)C1 (some centres undefined)" group="Criterion not met"
compound="CC(C)(C)[C@@]1(O)CC[C@@]2(C)C(CC[C@@H]3[C@@H]2CC[C@]2(C)C(=O)CC[C@@H]32)C1 (some centres undefined)" group="Criterion met"
compound="CCCO[C@@H]1CC[C@@]2(C)C(CC[C@@H]3[C@@H]2CC[C@]2(C)C(=O)CC[C@@H]32)C1 (some centres undefined)" group="Criterion met"
compound="C[C@]12CC[C@@](O)(CCCO)CC1CC[C@@H]1[C@@H]2CC[C@]2(C)C(=O)CC[C@@H]12 (some centres undefined)" group="Criterion not met"
compound="C[C@]12CC[C@@]3(CCC(=O)O3)CC1CC[C@@H]1[C@@H]2CC[C@]2(C)C(=O)CC[C@@H]12 (some centres undefined)" group="Criterion not met"
compound="C[C@]1(O)CC[C@@]2(C)C(CC[C@@H]3[C@@H]2CC[C@]2(C)C(=O)CC[C@@H]32)C1 (some centres undefined)" group="Criterion not met"
compound="C[C@]12CC[C@@H](OCCCO)CC1CC[C@@H]1[C@@H]2CC[C@]2(C)C(=O)CC[C@@H]12 (some centres undefined)" group="Criterion not met"
compound="CCO[C@@H]1CC[C@@]2(C)C(CC[C@@H]3[C@@H]2CC[C@]2(C)C(=O)CC[C@@H]32)C1 (some centres undefined)" group="Criterion met"
compound="C[C@]12CC[C@](O)(CCCO)CC1CC[C@@H]1[C@@H]2CC[C@]2(C)C(=O)CC[C@@H]12 (some centres undefined)" group="Criterion not met"
compound="C[C@]12CC[C@@H](OCCC(=O)O)CC1CC[C@@H]1[C@@H]2CC[C@]2(C)C(=O)CC[C@@H]12 (some centres undefined)" group="Criterion not met"
compound="CO[C@]1(Cc2ccccc2)CC[C@@]2(C)C(CC[C@@H]3[C@@H]2CC[C@]2(C)C(=O)CC[C@@H]32)C1 (some centres undefined)" group="Criterion met"
compound="C[C@]12CC[C@@H](OCCCBr)CC1CC[C@@H]1[C@@H]2CC[C@]2(C)C(=O)CC[C@@H]12 (some centres undefined)" group="Criterion met"
compound="CCCCCCO[C@]1(Cc2ccccc2)CC[C@@]2(C)C(CC[C@@H]3[C@@H]2CC[C@]2(C)C(=O)CC[C@@H]32)C1 (some centres undefined)" group="Criterion not met"
